SYSTEM TESTED: Voltage-gated potassium channel subunit beta-2 (Rattus norvegicus)
TEST DESCRIPTION: KvBeta enzyme negative modulators, primary screen, biochemical, NADPH fluorescence (AID 622);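 further: slope of raw intensity against log time taken from 70 to 1610 s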
MEASUREMENT PARAMETERS: recombinant KvBeta, 4-cyanobenzaldehyde reduction, at 10 µM, stronger effect = higher value
Given measured fluorescence slope, output met if it is greater than or equal to -0.5 and not met if not.

Q. Given the entry COc1ccc(Nc2nnc(C)c3ccccc23)cc1C(N)=O , answer whether its fluorescence slope meets or surpasses -0.5.
A. met

Q. Given the entry COc1ccc(CCn2c(C)cc3c(c2=O)C(c2ccc4c(c2)OCO4)C(C#N)=C(N)O3)cc1OC (stereo unspecified) , answer whether its fluorescence slope meets or surpasses -0.5.
A. met

Q. Given the entry COc1ccc2cc(C#N)c(SCC(=O)N3CCCC3)nc2c1 , answer whether its fluorescence slope meets or surpasses -0.5.
A. not met

Q. Given the entry C=CCSC1=C(C#N)C(c2ccccc2)CC(=O)N1 (stereo unspecified) , answer whether its fluorescence slope meets or surpasses -0.5.
A. not met

Q. Given the entry CC(NC(=O)Nc1nnc(C(F)(F)F)s1)(C(F)(F)F)C(F)(F)F , answer whether its fluorescence slope meets or surpasses -0.5.
A. met

Q. Given the entry CCOc1ccc2nc(SCc3ccc(C(=O)OC)o3)[nH]c2c1 , answer whether its fluorescence slope meets or surpasses -0.5.
A. not met

Q. Given the entry Cc1cccc(-n2c(O)c(C=Nc3ccccc3N)c(=O)[nH]c2=O)c1 , answer whether its fluorescence slope meets or surpasses -0.5.
A. met

Q. Given the entry CCOCCn1c(SCc2c(F)cccc2Cl)nc2c1c(=O)[nH]c(=O)n2C , answer whether its fluorescence slope meets or surpasses -0.5.
A. met

Q. Given the entry CC(NC(=O)Nc1ccc(O)cc1)(C(F)(F)F)C(F)(F)F , answer whether its fluorescence slope meets or surpasses -0.5.
A. met

Q. Given the entry CC(C)=CCC(C)(C)CNC(=O)NC1CCCCC1 , answer whether its fluorescence slope meets or surpasses -0.5.
A. met

Q. Given the entry Cc1nn(C(=O)c2cc3sccc3[nH]2)c(C)c1C , answer whether its fluorescence slope meets or surpasses -0.5.
A. met

Q. Given the entry CCN(CC)c1ccc(NC(=O)CN2CCN(CC(=O)Nc3ccccc3F)CC2)cc1 , answer whether its fluorescence slope meets or surpasses -0.5.
A. met

Q. Given the entry O=C(Cn1cnc2ccccc2c1=O)NCCC(=O)N1CCN(c2ccccc2)CC1 , answer whether its fluorescence slope meets or surpasses -0.5.
A. met

Q. Given the entry CCN(CC)C(=O)CSc1nc2ccccc2c(=O)n1CC1CCCCC1 , answer whether its fluorescence slope meets or surpasses -0.5.
A. met

Q. Given the entry COc1ccccc1NC(=O)Nc1nnc(C(C)C)s1 , answer whether its fluorescence slope meets or surpasses -0.5.
A. met

Q. Given the entry CCC1CCCCN1C(=O)Cn1c(C(=O)OC)cc2sc(Cl)cc21 (stereo unspecified) , answer whether its fluorescence slope meets or surpasses -0.5.
A. met

Q. Given the entry O=C(NCC(F)(F)F)Nc1nnc(C(F)(F)F)s1 , answer whether its fluorescence slope meets or surpasses -0.5.
A. met

Q. Given the entry Cc1cccc(NC(=O)c2cc(NC(=O)c3ccco3)ccc2Cl)n1 , answer whether its fluorescence slope meets or surpasses -0.5.
A. not met

Q. Given the entry CCOC(=O)C1CCN(c2ncnc3c2cnn3-c2ccc(Cl)cc2)CC1 , answer whether its fluorescence slope meets or surpasses -0.5.
A. met

Q. Given the entry CCC(c1nnnn1C(C)(C)C)N1CCN(C2CCCC2)CC1 (stereo unspecified) , answer whether its fluorescence slope meets or surpasses -0.5.
A. not met

Q. Given the entry Cc1cc(C)n(CC(=O)c2ccccc2)c(=O)c1C#N , answer whether its fluorescence slope meets or surpasses -0.5.
A. met

Q. Given the entry Cc1nnc(NC(=O)CSc2cn(CCNC(=O)c3ccccc3)c3ccccc23)s1 , answer whether its fluorescence slope meets or surpasses -0.5.
A. met

Q. Given the entry COc1cc(Br)cc(CN2CCN(C/C=C/c3ccccc3)CC2)c1O , answer whether its fluorescence slope meets or surpasses -0.5.
A. not met

Q. Given the entry CCOC(=O)C(NC(=O)c1ccc(OC)cc1)(N1CCOCC1)C(F)(F)F (stereo unspecified) , answer whether its fluorescence slope meets or surpasses -0.5.
A. not met

Q. Given the entry Cc1ccccc1-n1c(=O)c2ccccc2n2nnnc12 , answer whether its fluorescence slope meets or surpasses -0.5.
A. not met

Q. Given the entry CCCC1(C(=O)OCC)NC(c2ccc(N(C)C)cc2)C2C(=O)N(c3ccc(F)cc3)C(=O)C21 (stereo unspecified) , answer whether its fluorescence slope meets or surpasses -0.5.
A. met

Q. Given the entry COc1ccc(OC)c(-c2nc3c(C)n[nH]c(=O)c3[nH]2)c1 , answer whether its fluorescence slope meets or surpasses -0.5.
A. met

Q. Given the entry Cc1ccc(-n2ncc3c(N4CCCC(C)C4)ncnc32)c(C)c1 (stereo unspecified) , answer whether its fluorescence slope meets or surpasses -0.5.
A. not met

Q. Given the entry COc1ccc(-n2c(SCc3ccc(C#N)cc3)nnc2-c2ccccn2)cc1 , answer whether its fluorescence slope meets or surpasses -0.5.
A. not met

Q. Given the entry CCCC(=O)Nc1ccccc1-c1nnn(CC(=O)Nc2ccc(OC)cc2)n1 , answer whether its fluorescence slope meets or surpasses -0.5.
A. met

Q. Given the entry CCSc1nnc(NC(=O)C2CCCN(S(=O)(=O)c3cnc[nH]3)C2)s1 (stereo unspecified) , answer whether its fluorescence slope meets or surpasses -0.5.
A. not met

Q. Given the entry CCCCOn1c(C)c(C(=O)OCC)c2c3nonc3ccc21 , answer whether its fluorescence slope meets or surpasses -0.5.
A. met

Q. Given the entry COc1ccc(OCC(=O)Nc2cccc3ncccc23)cc1 , answer whether its fluorescence slope meets or surpasses -0.5.
A. not met

Q. Given the entry CCOC(=O)c1cc(CC)sc1NC(=O)CCC(=O)O , answer whether its fluorescence slope meets or surpasses -0.5.
A. met

Q. Given the entry O=C(NCC1CCCO1)C1CCCN(Cc2cnn(-c3ccccc3)c2-n2cccc2)C1 (stereo unspecified) , answer whether its fluorescence slope meets or surpasses -0.5.
A. met

Q. Given the entry CC1CCN(c2oc(-c3ccccc3F)nc2C#N)CC1 , answer whether its fluorescence slope meets or surpasses -0.5.
A. met

Q. Given the entry COc1cc(C)c(N)cc1C(C)C , answer whether its fluorescence slope meets or surpasses -0.5.
A. not met

Q. Given the entry N#Cc1ccc(-c2ccc(OCC(O)Cn3nnc4ccccc43)cc2)cc1 (stereo unspecified) , answer whether its fluorescence slope meets or surpasses -0.5.
A. met

Q. Given the entry COc1ccc(NC(=O)CSc2nnc(-c3ccccc3C)n2C)cc1 , answer whether its fluorescence slope meets or surpasses -0.5.
A. met

Q. Given the entry CC(NC(=O)Nc1ncccn1)(C(F)(F)F)C(F)(F)F , answer whether its fluorescence slope meets or surpasses -0.5.
A. met

Q. Given the entry CC(NC(=O)Nc1ccccc1)C(c1cccs1)N1CCOCC1 (stereo unspecified) , answer whether its fluorescence slope meets or surpasses -0.5.
A. not met
